target under test: recombinant active full-length human MEK7 (Homo sapiens, UniProt O14733)
Construct: recombinant active full-length human MEK7 (Carna Biosciences); purchased Carna Biosciences
Sequence (O14733 whole entry): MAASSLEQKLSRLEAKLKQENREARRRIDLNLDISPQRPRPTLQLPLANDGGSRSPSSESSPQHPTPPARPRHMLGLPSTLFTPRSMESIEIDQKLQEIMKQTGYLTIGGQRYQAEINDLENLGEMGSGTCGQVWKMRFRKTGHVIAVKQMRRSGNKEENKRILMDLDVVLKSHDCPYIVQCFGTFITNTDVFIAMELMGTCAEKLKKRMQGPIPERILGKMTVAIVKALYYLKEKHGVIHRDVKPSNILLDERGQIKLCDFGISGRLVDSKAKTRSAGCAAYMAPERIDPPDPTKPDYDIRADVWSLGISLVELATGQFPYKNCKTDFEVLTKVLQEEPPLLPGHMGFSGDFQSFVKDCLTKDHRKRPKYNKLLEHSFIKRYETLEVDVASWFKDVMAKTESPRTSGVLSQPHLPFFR
experiment notes: ADP-Glo kinase activity assay, MEK7 with JNK1 substrate
Format: biochemical
condition details: 30 min preincubation; first value in brackets
measurement label: IC50 (µM)
Quick reminder: number only, in µM, skip the unit.

*Q* Can you share its IC50? I mean this molecule: CNc1cc(Oc2cccc(NC(=O)CF)c2)ncn1 [Compound 12]
*A* 7.7

###

Consider the following compounds; for each one, report its pIC50.
target under test: recombinant active full-length human MEK7 (Homo sapiens, UniProt O14733)
Construct: recombinant active full-length human MEK7 (Carna Biosciences); purchased Carna Biosciences
experiment notes: ADP-Glo kinase activity assay, MEK7 with JNK1 substrate
Format: biochemical
condition details: 30 min preincubation; overall value of two experiments; read-out: MEK7 IC50
On this scale, pIC50 is minus log10 of a concentration expressed in M (mol/L).

*Q* Fill blank: measured pIC50 of the compound O=C(CCl)Nc1cccc(Oc2cc(NCc3c(F)ccc(F)c3F)ncn2)c1 is ____.
*A* 6.96

*Q* Item O=C(CCl)Nc1cccc(Oc2cc(NCc3ccc(C(F)(F)F)cc3)ncn2)c1 has what recorded pIC50?
*A* 6.39

*Q* Recorded pIC50 for COc1ccc(CCNc2cc(Oc3cccc(NC(=O)CCl)c3)ncn2)cc1OC , please?
*A* 5.77

*Q* Give the measured pIC50 of CNc1cc(Oc2cccc(NC(=O)CCl)c2)ncn1 .
*A* 7.22

*Q* pIC50 for O=C(CCl)Nc1cccc(Oc2cc(NC3CCCC3)ncn2)c1 ?
*A* 6.57

*Q* Tell me the measured pIC50 of COc1ccccc1CNc1cc(Oc2cccc(NC(=O)CCl)c2)ncn1 , please.
*A* 6.10

*Q* Which measured pIC50 value corresponds to CN(Cc1ccccc1)c1cc(Oc2cccc(NC(=O)CCl)c2)ncn1 ?
*A* 6.96

*Q* Requested read-out: pIC50. Entry: O=C(CCl)Nc1cccc(Oc2cc(NCc3ccccc3C(F)(F)F)ncn2)c1
*A* 5.92

*Q* Entry COc1ccc(CCNc2cc(Oc3cccc(NC(=O)CCl)c3)ncn2)cc1 has what pIC50?
*A* 6.03

*Q* Find the recorded pIC50 belonging to O=C(CCl)Nc1cccc(Oc2cc(NCc3ccc(F)c(C(F)(F)F)c3)ncn2)c1 and report it.
*A* 5.52

*Q* Quick check: pIC50 of O=C(CCl)Nc1cccc(Oc2cc(NCCc3ccccc3)ncn2)c1 ?
*A* 5.92

*Q* // returns reported pIC50 for input CNc1cc(Oc2ccc(NC(=O)CCl)cc2)ncn1
*A* 5.74

*Q* Any idea what its pIC50 is? The compound is O=C(CCl)Nc1cccc(Oc2cc(NCc3ccc(F)cc3F)ncn2)c1
*A* 6.44

*Q* Given the entry O=C(CCl)Nc1cccc(Oc2cc(NCc3ccc(F)c(F)c3)ncn2)c1 , report its measured pIC50.
*A* 7.38

###

target under test: recombinant active full-length human MEK7 (Homo sapiens, UniProt O14733)
Construct: recombinant active full-length human MEK7 (Carna Biosciences); purchased Carna Biosciences
experiment notes: ADP-Glo kinase activity assay, MEK7 with JNK1 substrate
Assay type: biochemical
condition details: MEK7 IC50 without preincubation, first experiment (n=3), without preincubation; first value in brackets
measurement label: IC50 (nM)
// units = nM; emit number, no label

*Q* Requested read-out: IC50. Entry: O=C(CCl)Nc1cccc(Oc2cc(NCc3ccccc3)ncn2)c1
*A* 67
